Test system: cocklebur
ASSAY: Test B pre/postemergence cocklebur
Assay type: in vivo, Xanthium strumarium
TEST CONDITIONS: Postemergence, Rate 250 g/ha; scale 0 to 10, 0 is no effect, 10 is complete control
Procedure: […] At the same time, these crop and weed species were also treated with postemergence applications of test chemicals formulated in the same manner. […] Treated plants and controls were maintained in a greenhouse for twelve to sixteen days, after which all species were compared to controls and visually evaluated. […]

MOLECULE	SUBJECT OF TEST	Plant response rating, Cocklebur
CC(C)N(C(=O)n1oc(=O)[nH]c1=O)c1ccc(F)cc1F	cocklebur	0
CC(C)N(C(=O)n1oc(=O)n([C@@H]2C[C@H]2C)c1=O)c1ccc(F)cc1 (relative stereo)	cocklebur	2
C=CC[Si](C)(C)Cn1c(=O)on(C(=O)N(c2ccc(Cl)cc2)C(C)C)c1=O	cocklebur	0
CC(C)N(C(=O)n1oc(=O)n(C2(C)CC2)c1=O)c1ccccc1	cocklebur	0
